So I've got a bunch of molecules here, and I need their MIC values.
# Test system: STREPTOCOCCUS PYOGENES EES61
# assay procedure: In vitro antibacterial activity, MIC, BHI agar dilution
# Assay type: cell-based
# condition description: S. pyogenes EES61, unit assumed
# output: numeric value plus its unit

These recorded examples may help you get a feel for the data.
| molecule | result |
| --- | --- |
| CC[C@H]1OC(=O)[C@H](C)C(=O)[C@H](C)[C@@H](O[C@@H]2O[C@H](C)C[C@H](N(C)C)[C@H]2O)[C@](C)(OC)C[C@@H](C)C2=N[C@H](COCc3ccc(C(=O)OC)cc3)CN3C(=O)O[C@@]1(C)[C@H]3[C@H]2C | 0.02 µg/mL |
| CC[C@H]1OC(=O)[C@H](C)C(=O)[C@H](C)[C@@H](O[C@@H]2O[C@H](C)C[C@H](N(C)C)[C@H]2O)[C@](C)(OC)C[C@@H](C)C2=NC[C@H](COCc3cccc(F)c3)N3C(=O)O[C@@]1(C)[C@H]3[C@H]2C | 0.01 µg/mL |
| CC[C@H]1OC(=O)[C@H](C)C(=O)[C@H](C)[C@@H](O[C@@H]2O[C@H](C)C[C@H](N(C)C)[C@H]2O)[C@](C)(OC)C[C@@H](C)C2=N[C@@H]3CNC[C@@H]3N3C(=O)O[C@@]1(C)[C@H]3[C@H]2C | 0.05 µg/mL |

Hi, could you look up MIC for each item in my list?
1. CCC1OC(=O)C(C)C(=O)C(C)C(OC2OC(C)CC(N(C)C)C2O)C(C)(OC)CC(C)C2=NC(COCc3ccc(N(C)C)cc3)CN3C(=O)OC1(C)C3C2C (centres unmarked)
2. CCOC(=O)CCN1CC2N=C3C(C)CC(C)(OC)C(OC4OC(C)CC(N(C)C)C4O)C(C)C(=O)C(C)C(=O)OC(CC)C4(C)OC(=O)N(C2C1)C4C3C (centres unmarked)

["0.1 µg/mL", "0.1 µg/mL"]

---

# Tested on: KLEBSIELLA PNEUMONIAE ATCC 8045
# assay procedure: In vitro antibacterial activity, MIC, BHI agar dilution
# Assay type: cell-based
# condition description: K. pneumoniae ATCC 8045, unit assumed
So I've got a bunch of molecules here, and I need their MIC values.

These recorded examples may help you get a feel for the data.
| molecule | result |
| --- | --- |
| CC[C@H]1OC(=O)[C@H](C)C(=O)[C@H](C)[C@@H](O[C@@H]2O[C@H](C)C[C@H](N(C)C)[C@H]2O)[C@](C)(OC)C[C@@H](C)C2=NC3CN(CCOc4ccccc4)CC3N3C(=O)O[C@@]1(C)[C@H]3[C@H]2C (stereo partly shown) | > 100 µg/mL |
| CC[C@H]1OC(=O)[C@H](C)C(=O)[C@H](C)[C@@H](O[C@@H]2O[C@H](C)C[C@H](N(C)C)[C@H]2O)[C@](C)(OC)C[C@@H](C)C2=NC3CCCC3N3C(=O)O[C@@]1(C)[C@H]3[C@H]2C (stereo partly shown) | > 100 µg/mL |
| CC[C@H]1OC(=O)[C@H](C)C(=O)[C@H](C)[C@@H](O[C@@H]2O[C@H](C)C[C@H](N(C)C)[C@H]2O)[C@](C)(OC)C[C@@H](C)C2=NCC(COC(=O)c3cccc4[nH]ccc34)N3C(=O)O[C@@]1(C)[C@H]3[C@H]2C (stereo partly shown) | 100 µg/mL |

Note: attention shifts to another entry.
Fill in the recorded MIC for this molecule, with KLEBSIELLA PNEUMONIAE ATCC 8045 as test system: CC[C@H]1OC(=O)[C@H](C)C(=O)[C@H](C)[C@@H](O[C@@H]2O[C@H](C)C[C@H](N(C)C)[C@H]2O)[C@](C)(OC)C[C@@H](C)C2=NC3CN(C=O)CC3N3C(=O)O[C@@]1(C)[C@H]3[C@H]2C (stereo partly shown)
> 100 µg/mL

---

# System: CANDIDA ALBICANS CCH 442
# assay procedure: In vitro antibacterial activity, MIC, BHI agar dilution
# Assay type: cell-based
# condition description: C. albicans CCH 442, unit assumed
So I've got a bunch of molecules here, and I need their MIC values.

| molecule | recorded metric | result |
| --- | --- | --- |
| CC[C@H]1OC(=O)[C@H](C)C(=O)[C@H](C)[C@@H](O[C@@H]2O[C@H](C)C[C@H](N(C)C)[C@H]2O)[C@](C)(OC)C[C@@H](C)C2=NC3CN(C(C)=O)CC3N3C(=O)O[C@@]1(C)[C@H]3[C@H]2C (some centres unmarked) | MIC | > 100 µg/mL |

Fill in the recorded MIC for this molecule, with CANDIDA ALBICANS CCH 442 as test system: CC[C@H]1OC(=O)[C@H](C)C(=O)[C@H](C)[C@@H](O[C@@H]2O[C@H](C)C[C@H](N(C)C)[C@H]2O)[C@](C)(OC)C[C@@H](C)C2=NC3CN(CC(OC)OC)CC3N3C(=O)O[C@@]1(C)[C@H]3[C@H]2C (some centres unmarked)
> 100 µg/mL

---

So I've got a bunch of molecules here, and I need their MIC values.
# Tested on: STREPTOCOCCUS BOVIS A-5169
# assay procedure: In vitro antibacterial activity, MIC, BHI agar dilution
# Type: cell-based
# condition description: S. bovis A-5169, unit assumed
Answers are plain numbers, in µg/mL.

| smiles code | MIC / µg/mL |
| --- | --- |
| CC[C@H]1OC(=O)[C@H](C)C(=O)[C@H](C)[C@@H](O[C@@H]2O[C@H](C)C[C@H](N(C)C)[C@H]2O)[C@](C)(OC)C[C@@H](C)C2=NC[C@H](Cc3ccc(NC(=O)OCc4ccccc4)cc3)N3C(=O)O[C@@]1(C)[C@H]3[C@H]2C | 0.05 |

What value of MIC has been reported for the following molecule? CC[C@H]1OC(=O)[C@H](C)C(=O)[C@H](C)[C@@H](O[C@@H]2O[C@H](C)C[C@H](N(C)C)[C@H]2O)[C@](C)(OC)C[C@@H](C)C2=NC[C@H](Cc3cscn3)N3C(=O)O[C@@]1(C)[C@H]3[C@H]2C
0.01

---

# Tested on: STAPHYLOCOCCUS AUREUS CMX 553
# assay procedure: In vitro antibacterial activity, MIC, BHI agar dilution
# Assay type: cell-based
# condition description: S. aureus CMX 553, unit assumed
recorded metric: MIC (µg/mL)
One number for each entry, in µg/mL.

| smiles code | recorded metric | result unit | numeric readout |
| --- | --- | --- | --- |
| CC[C@H]1OC(=O)[C@H](C)C(=O)[C@H](C)[C@@H](O[C@@H]2O[C@H](C)C[C@H](N(C)C)[C@H]2O)[C@](C)(OC)C[C@@H](C)C2=N[C@H](COCc3cccc(Cl)c3)CN3C(=O)O[C@@]1(C)[C@H]3[C@H]2C | MIC | µg/mL | 0.39 |

What value of MIC has been reported for the following compound? CC[C@H]1OC(=O)[C@H](C)C(=O)[C@H](C)[C@@H](O[C@@H]2O[C@H](C)C[C@H](N(C)C)[C@H]2O)[C@](C)(OC)C[C@@H](C)C2=N[C@H](COCc3ccnc4ccccc34)CN3C(=O)O[C@@]1(C)[C@H]3[C@H]2C
0.2

---

So I've got a bunch of molecules here, and I need their MIC values.
# Tested on: STAPHYLOCOCCUS AUREUS CMX 642A
# assay procedure: In vitro antibacterial activity, MIC, BHI agar dilution
# Type: cell-based
# condition description: S. aureus CMX 642A, unit assumed
# output: numeric value plus its unit

| molecule | MIC |
| --- | --- |
| CC[C@H]1OC(=O)[C@H](C)C(=O)[C@H](C)[C@@H](O[C@@H]2O[C@H](C)C[C@H](N(C)C)[C@H]2O)[C@](C)(OC)C[C@@H](C)C2=N[C@H](COCc3ccccc3Cl)CN3C(=O)O[C@@]1(C)[C@H]3[C@H]2C | 0.78 µg/mL |
| CC[C@H]1OC(=O)[C@H](C)C(=O)[C@H](C)[C@@H](O[C@@H]2O[C@H](C)C[C@H](N(C)C)[C@H]2O)[C@](C)(OC)C[C@@H](C)C2=NCC(COC(=O)c3ccccc3)N3C(=O)O[C@@]1(C)[C@H]3[C@H]2C (some centres unmarked) | 0.1 µg/mL |
| CC[C@H]1OC(=O)[C@H](C)C(=O)[C@H](C)[C@@H](O[C@@H]2O[C@H](C)C[C@H](N(C)C)[C@H]2O)[C@](C)(OC)C[C@@H](C)C2=N[C@H](COCc3cccc(Br)c3)CN3C(=O)O[C@@]1(C)[C@H]3[C@H]2C | 0.05 µg/mL |
| CC[C@H]1OC(=O)[C@H](C)C(=O)[C@H](C)[C@@H](O[C@@H]2O[C@H](C)C[C@H](N(C)C)[C@H]2O)[C@](C)(OC)C[C@@H](C)C2=N[C@H](CCOCc3ccccc3)CN3C(=O)O[C@@]1(C)[C@H]3[C@H]2C | 0.39 µg/mL |
| CC[C@H]1OC(=O)[C@H](C)[C@@H](O[C@H]2C[C@@](C)(OC)[C@@H](O)[C@H](C)O2)[C@H](C)[C@@H](O[C@@H]2O[C@H](C)C[C@H](N(C)C)[C@H]2O)[C@](C)(O)C[C@@H](C)C(=O)[C@H](C)[C@@H](O)[C@]1(C)O [Ery A, Erythromycin A, reference compound] | 0.39 µg/mL |

Hi, could you look up MIC for each item in my list?
1. CC[C@H]1OC(=O)[C@H](C)C(=O)[C@H](C)[C@@H](O[C@@H]2O[C@H](C)C[C@H](N(C)C)[C@H]2O)[C@](C)(OC)C[C@@H](C)C2=NC[C@@H](C)N3C(=O)O[C@@]1(C)[C@H]3[C@H]2C
2. CC[C@H]1OC(=O)[C@H](C)C(=O)[C@H](C)[C@@H](O[C@@H]2O[C@H](C)C[C@H](N(C)C)[C@H]2O)[C@](C)(OC)C[C@@H](C)C2=NC[C@H](Cc3ccc(O)cc3)N3C(=O)O[C@@]1(C)[C@H]3[C@H]2C
3. CC[C@H]1OC(=O)[C@H](C)C(=O)[C@H](C)[C@@H](O[C@@H]2O[C@H](C)C[C@H](N(C)C)[C@H]2O)[C@](C)(OC)C[C@@H](C)C2=NCC(COC(=O)c3ccc(Cl)cc3)N3C(=O)O[C@@]1(C)[C@H]3[C@H]2C (some centres unmarked)

["0.39 µg/mL", "0.39 µg/mL", "0.1 µg/mL"]
